# experimental.setup: buffer; pH 7.4; 200.0 µM
Please respond with reported log10 of solubility kinetic for every item in the list.
Hi team, quick reminder: these entries are log10 of solubility kinetic (µg/mL).

Please review the following examples before continuing.
COc1ccccc1N=C1SCC(=O)N1Cc1ccco1 | 1.55
Cc1cc(C)c2c(=O)c(/C=C3\NC(=S)NC3=O)coc2c1 | -0.10
Cc1cccc(C)c1NC(=S)N(Cc1cccs1)C1CCCC1 | -0.22
Cc1cc(OCC(=O)Nc2ccc3oc(=O)ccc3c2)ccc1Cl | 0.38

Proceed to the following item.
(Q) Which measured log10 of solubility kinetic value corresponds to "Cc1cc(SCC#N)nc2ccccc12" ?
(A) 1.16
